Cited source for all entries: patent US20210113678A1

# SYSTEM UNDER TEST: T1, HLA-A*0201 molecule on human T2 cells (human)
# T1 construct: read out with anti-HLA-A2 antibody BB7.2-PE; also called HLA-A2
# METHOD NOTES: T2 cells expressing HLA-A*0201, anti-HLA-A2-PE, FACS
VALUE TYPE: In vitro binding affinity (relative to reference peptide HIV pol 589-597)

# BINDER, RECORDED MEASUREMENT
rows = [
    ("AVFRVLIPV [EZH2-B2]", 1.7),
    ("FLVEDETVI [EZH2-B]", 0.7),
    ("SMFRVLIGT (Fragment of human EZH2) [EZH2-H2]", 7.8),
    ("VLEELLWFI (Fragment of human TYMS) [TYMS-H]", 0.3),
    ("LTLGEFLKL [BIRC5-H]", 16.1),
    ("FLPFGFILPV [IL13RA2-L]", 0.3),
    ("ILDEAYVRV [EGFR-B]", 0.2),
    ("FMVEDETVL (Fragment of human EZH2) [EZH2-H]", 1.1),
    ("SMEELLWFV [TYMS-B]", 0.1),
    ("GLLGEFLQI (also called B1RC5-B3) [BIRC5-B3]", 7),
    ("RVSSYLVPI (Fragment of human FOXM1) [FOXM1-H]", 3.7),
    ("LLLSAALSV [CHI3L1B]", 0.9),
    ("YTLGEFLYI [BIRC5-B2]", 4.5),
]
